- TARGET ENTITY: Nuclear receptor subfamily 1 group I member 3 (Homo sapiens)
- Sequence (Q14994 whole entry): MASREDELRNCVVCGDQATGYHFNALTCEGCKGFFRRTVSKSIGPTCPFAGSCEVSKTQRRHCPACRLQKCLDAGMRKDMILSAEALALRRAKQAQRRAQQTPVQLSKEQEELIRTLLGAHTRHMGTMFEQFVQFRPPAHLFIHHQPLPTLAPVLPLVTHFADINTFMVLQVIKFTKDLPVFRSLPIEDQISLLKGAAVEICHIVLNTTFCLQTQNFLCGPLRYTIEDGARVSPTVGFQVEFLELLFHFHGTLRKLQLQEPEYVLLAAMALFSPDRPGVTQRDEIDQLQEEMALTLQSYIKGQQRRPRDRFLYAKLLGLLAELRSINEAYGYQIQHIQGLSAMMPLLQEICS
- PROTOCOL NOTES: Agonist activity at human CAR transfected in human HepG2 cells cotransfected with CYP2B6 incubated for 23 hrs by luciferase reported gene assay
- Format: cell-based
- ASSAY CONTEXT: read-out: EC50
QUANTITY KIND: EC50

In [3]: df
Out[3]:
                                 mol_smiles                             target_entity  quantity_kind   result
0  Clc1ccc(CO/N=C/c2c(-c3cccc4ccccc34)nc3sccn23)cc1Cl  Nuclear receptor subfamily 1 group I member 3 (Homo sapiens)           EC50   940 nM
1  C(=N\OCc1ccccc1)/c1c(-c2ccc3ccccc3c2)nc2occn12  Nuclear receptor subfamily 1 group I member 3 (Homo sapiens)           EC50   840 nM
2  Clc1ccccc1CO/N=C/c1c(-c2ccc3ccccc3c2)nc2occn12  Nuclear receptor subfamily 1 group I member 3 (Homo sapiens)           EC50  1100 nM
3  Clc1ccc(CO/N=C/c2c(-c3ccc4ccccc4c3)nc3occn23)cc1Cl  Nuclear receptor subfamily 1 group I member 3 (Homo sapiens)           EC50   370 nM
4  Clc1cccc(-c2nc3sccn3c2/C=N/OCc2ccc(Cl)c(Cl)c2)c1  Nuclear receptor subfamily 1 group I member 3 (Homo sapiens)           EC50  1100 nM
5  Clc1ccc(CO/N=C/c2c(-c3ccc4ccccc4c3)nc3sccn23)cc1Cl  Nuclear receptor subfamily 1 group I member 3 (Homo sapiens)           EC50   380 nM
6  Fc1c(F)c(F)c(CO/N=C/c2c(-c3ccc4ccccc4c3)nc3occn23)c(F)c1F  Nuclear receptor subfamily 1 group I member 3 (Homo sapiens)           EC50  1700 nM
7  FC(F)(F)c1ccc(CO/N=C/c2c(-c3ccc4ccccc4c3)nc3occn23)cc1  Nuclear receptor subfamily 1 group I member 3 (Homo sapiens)           EC50   470 nM
8  CC(C)(C)c1ccc(CO/N=C/c2c(-c3ccc4ccccc4c3)nc3occn23)cc1  Nuclear receptor subfamily 1 group I member 3 (Homo sapiens)           EC50  7900 nM
9  Clc1ccc(CO/N=C/c2c(-c3ccc4ccccc4c3)nc3occn23)cc1  Nuclear receptor subfamily 1 group I member 3 (Homo sapiens)           EC50   990 nM
